- TESTED TARGET: BACE1 (Homo sapiens (Human))
- ASSAY PROTOCOL: In vitro enzymatic BACE1 FRET assay
- Assay type: biochemical
- MEASUREMENT CONDITIONS: read-out: IC50 IP (μM) BACE1 Enzyme
- Sequence (P56817 46-501): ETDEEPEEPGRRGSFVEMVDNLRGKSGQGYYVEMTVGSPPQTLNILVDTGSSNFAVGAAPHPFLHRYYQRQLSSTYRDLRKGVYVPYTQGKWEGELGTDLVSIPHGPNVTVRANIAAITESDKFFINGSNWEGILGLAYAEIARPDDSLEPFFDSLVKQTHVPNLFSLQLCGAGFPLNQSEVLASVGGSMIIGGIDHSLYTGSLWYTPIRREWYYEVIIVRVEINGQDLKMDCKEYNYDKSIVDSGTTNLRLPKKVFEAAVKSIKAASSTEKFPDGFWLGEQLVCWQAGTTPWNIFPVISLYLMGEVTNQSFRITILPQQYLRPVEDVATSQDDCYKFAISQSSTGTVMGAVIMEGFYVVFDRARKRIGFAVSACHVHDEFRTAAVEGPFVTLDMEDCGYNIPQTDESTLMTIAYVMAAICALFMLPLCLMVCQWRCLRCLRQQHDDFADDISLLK
ASSAY READOUT: IC50
Don't forget the unit after the number, please.

Consider the molecule `CN(C)C(=O)[C@]12C[C@H]1[C@@](C)(c1cc(/C=C(\F)c3ccc(Br)cn3)ccc1F)N=C(N)S2` and give its recorded IC50.
0.00199 µM

Consider the molecule `C#CCOc1cnc(/C(F)=C/c2cnc(F)c([C@@]3(C)N=C(N)S[C@@]4(C(=O)N5CCOC[C@H]5C)C[C@H]43)c2)cn1` and give its recorded IC50.
0.0017 µM

Consider the molecule `C[C@]1(c2cc(/C=C(\F)c3ccc(C#CC4CC4)cn3)ccc2F)N=C(N)S[C@@]2(C(=O)N3CCOCC3)C[C@H]21` and give its recorded IC50.
0.015 µM

Consider the molecule `CC(C)[C@@H]1CN(C(=O)[C@]23C[C@H]2[C@@](C)(c2cc(/C=C(\F)c4ccc(C#N)cn4)ccc2F)N=C(N)S3)CCO1` and give its recorded IC50.
0.0018 µM

Consider the molecule `CN(C)C(=O)[C@]12C[C@H]1[C@@](C)(c1cc(/C=C(\F)c3cn4cc(C#N)ccc4n3)ccc1F)N=C(N)S2` and give its recorded IC50.
0.171 µM

Consider the molecule `COC[C@]12C[C@H]1[C@@](C)(c1cc(/C=C(\F)c3cnc(OCC(F)F)cn3)ccc1F)N=C(N)S2` and give its recorded IC50.
0.591 µM

Consider the molecule `COC[C@]12C[C@H]1[C@@](C)(c1cc(/C=C(\F)c3cnc(OCCF)cn3)ccc1F)N=C(N)S2` and give its recorded IC50.
0.839 µM

Consider the molecule `C[C@]1(c2cc(/C=C(\F)c3ccc(C#N)cn3)cnc2F)N=C(N)S[C@@]2(C(=O)NCC(F)F)C[C@H]21` and give its recorded IC50.
0.0214 µM

Consider the molecule `C[C@]1(c2cc(/C=C(\F)c3ccc(C#N)cn3)ccc2F)N=C(N)S[C@@]2(C(=O)N3CCC(F)(F)CC3)C[C@H]21` and give its recorded IC50.
0.0019 µM

Consider the molecule `C#C[C@H](C)Oc1cnc(/C(F)=C/c2ccc(F)c([C@@]3(C)N=C(N)S[C@@]4(S(C)(=O)=O)C[C@H]43)c2)cn1` and give its recorded IC50.
0.001 µM

Consider the molecule `COC[C@]12C[C@H]1[C@@](C)(c1cc(/C=C(\F)c3cnc(OCC4COC4)cn3)ccc1F)N=C(N)S2` and give its recorded IC50.
3.04 µM

Consider the molecule `C#CCOc1cnc(/C(F)=C/c2cnc(F)c([C@@]3(C)N=C(N)S[C@@]4(C(=O)N5CCOCC5)C[C@H]43)c2)cn1` and give its recorded IC50.
0.0018 µM

Consider the molecule `CNC(=O)[C@]12C[C@H]1[C@@](C)(c1cc(/C=C(\F)c3ccc(C#CC4(C)COC4)cn3)ccc1F)N=C(N)S2` and give its recorded IC50.
0.15 µM

====

- TESTED TARGET: BACE1 (Homo sapiens (Human))
- ASSAY PROTOCOL: BACE1 cell assay
- Assay type: cell-based
- Sequence (P56817 46-501, species assumed): as the sequence (P56817 46-501) above
ASSAY READOUT: IC50 (nM)
All answers are understood in nM, so give the number only.

Consider the compound `C[C@]1(c2cc(/C=C(\F)c3ccc(C#N)cn3)ccc2F)N=C(N)S[C@@]2(C(=O)N3C4CCC3COC4)C[C@H]21` and give its recorded IC50.
1.3

Consider the compound `C#CCOc1cnc(/C(F)=C/c2ccc(F)c([C@@]3(C)N=C(N)S[C@@]4(S(C)(=O)=O)C[C@H]43)c2)cn1` and give its recorded IC50.
10.5

Consider the compound `CN(C)C(=O)[C@]12C[C@H]1[C@@](C)(c1cc(/C(F)=C/c3ccc(Cl)cn3)ccc1F)N=C(N)S2` and give its recorded IC50.
695

Consider the compound `C[C@]1(c2cc(/C=C(\F)c3ccc(Cl)cn3)ccc2F)N=C(N)S[C@@]2(C(N)=O)C[C@H]21` and give its recorded IC50.
18.1

Consider the compound `CNC(=O)[C@]12C[C@H]1[C@@](C)(c1cc(/C=C(\F)c3cnc(C#N)cn3)ccc1F)N=C(N)S2` and give its recorded IC50.
2.2

Consider the compound `COCCOc1cnc(/C(F)=C/c2ccc(F)c([C@@]3(C)N=C(N)S[C@@]4(C(=O)N(C)C)C[C@H]43)c2)cn1` and give its recorded IC50.
7

Consider the compound `Cc1cc(C#N)cnc1/C(F)=C/c1ccc(F)c([C@@]2(C)N=C(N)S[C@@]3(C(=O)N4CCOCC4)C[C@H]32)c1` and give its recorded IC50.
14.9

Consider the compound `C[C@]1(c2cc(/C=C(\F)c3ccc(Cl)cn3)ccc2F)N=C(N)S[C@]2(CO)[C@H]1C2(F)F` and give its recorded IC50.
505

Consider the compound `CN(C)C(=O)[C@]12C[C@H]1[C@@](C)(c1cc(/C=C(\F)c3cnc(C#CC4CC4)cn3)ccc1F)N=C(N)S2` and give its recorded IC50.
16.6

Consider the compound `CN(C)C(=O)[C@]12C[C@H]1[C@@](C)(c1cc(/C=C(\F)c3cnc(OCC(F)(F)C(F)F)cn3)cnc1F)N=C(N)S2` and give its recorded IC50.
326

Consider the compound `C#Cc1cnc(/C(F)=C/c2ccc(F)c([C@@]3(C)N=C(N)S[C@@]4(C(=O)N(C)C)C[C@H]43)c2)cn1` and give its recorded IC50.
569

Consider the compound `C#CCOc1cnc(/C(F)=C/c2ccc(F)c([C@@]3(C)N=C(N)S[C@@]4(C(=O)NCC(F)F)C[C@H]43)c2)cn1` and give its recorded IC50.
4.7

Consider the compound `CNC(=O)[C@]12C[C@H]1[C@@](C)(c1cc(/C=C(\F)c3ccc(C(F)(F)F)cn3)ccc1F)N=C(N)S2` and give its recorded IC50.
31

Consider the compound `CN(C)C(=O)[C@]12C[C@H]1[C@@](C)(c1cc(/C(F)=C/c3ccc(C#N)cc3)ccc1F)N=C(N)S2` and give its recorded IC50.
575

Consider the compound `COC(=O)[C@]12C[C@H]1[C@@](C)(c1cc(/C=C(\F)c3ccc(Cl)cn3)cc(F)c1F)N=C(N)S2` and give its recorded IC50.
1590

Consider the compound `C#CCOc1cnc(/C(F)=C/c2cnc(F)c([C@@]3(C)N=C(N)S[C@@]4(C(=O)NCC(F)F)C[C@H]43)c2)cn1` and give its recorded IC50.
6.6

Consider the compound `C[C@]1(c2cc(/C=C(\F)c3ccc(C#N)cn3)cnc2F)N=C(N)S[C@@]2(C(=O)N3[C@H]4COC[C@@H]3COC4)C[C@H]21` and give its recorded IC50.
17.3

Consider the compound `CC(=O)[C@]12C[C@H]1[C@@](C)(c1cc(/C=C(\F)c3ccc(C#N)cn3)ccc1F)N=C(N)S2` and give its recorded IC50.
6.6

Consider the compound `CNC(=O)[C@]12C[C@H]1[C@@](C)(c1cc(/C=C(\F)c3ccc(C#N)cn3)ccc1F)N=C(N)S2` and give its recorded IC50.
1.7

Consider the compound `C#CCOc1cnc(/C(F)=C/c2ccc(F)c([C@@]3(C)N=C(N)S[C@@]4(C(C)=O)C[C@H]43)c2)cn1` and give its recorded IC50.
11.1

Consider the compound `C[C@]1(c2cc(/C=C(\F)c3cnc(C#N)cn3)ccc2F)N=C(N)S[C@@]2(C(=O)N3CCCC3)C[C@H]21` and give its recorded IC50.
3

Consider the compound `C[C@]1(c2cc(/C=C(\F)c3cnc(C#N)cn3)ccc2F)N=C(N)S[C@@]2(C(=O)N3CCOCC3)C[C@H]21` and give its recorded IC50.
4

Consider the compound `CNC(=O)[C@]12C[C@H]1[C@@](C)(c1cc(/C=C(\F)c3cc4c(cn3)OCCO4)ccc1F)N=C(N)S2` and give its recorded IC50.
336

Consider the compound `CN(C)C(=O)[C@]12C[C@H]1[C@@](C)(c1cc(/C=C(\F)c3cnc(C#N)cn3)cnc1F)N=C(N)S2` and give its recorded IC50.
43.5

Consider the compound `CNC(=O)[C@]12C[C@H]1[C@@](C)(c1cc(/C=C(\F)c3cnc(Br)cn3)ccc1F)N=C(N)S2` and give its recorded IC50.
291

Consider the compound `CC#Cc1cnc(/C(F)=C/c2ccc(F)c([C@@]3(C)N=C(N)S[C@@]4(C(=O)NC)C[C@H]43)c2)cn1` and give its recorded IC50.
49.7

Consider the compound `C#CCOc1cnc(/C(F)=C/c2ccc(F)c([C@@]3(C)N=C(N)S[C@@]4(C(N)=O)C[C@H]43)c2)cn1` and give its recorded IC50.
2.9

Consider the compound `CNC(=O)[C@]12C[C@H]1[C@@](C)(c1cc(/C=C(\F)c3ncc(C#N)cc3C)ccc1F)N=C(N)S2` and give its recorded IC50.
33
